Test system: DeltatarO mutant
method notes: S. aureus survival, RN4220 and DeltatarO strains – OD600, teichoic acid synthesis inhibitors, primary screen (AID 463173)
run parameters: S. aureus RN4220 wild type/DeltatarO growth, OD600, 18 h, hits give low values, screened at 18.75 µg/mL (by protocol)
Among all 52,000 compounds or so, about 4,300 (8.3%) were called active. The sample holds actives, similar compounds and a random draw of the others, so the mix is not that of the screen.
result type: survival (%)
Answer in %, number only, no unit symbol.

Supply survival value. Item: "CCNc1nc(Oc2ccc(=O)n(-c3ccccc3)n2)nc(N(C)C)n1"
84

Supply survival value. Item: "COc1ccc(-c2noc(CCC(=O)N(C)c3ccccc3C)n2)cc1"
80

Supply survival value. Item: "COC(=O)Nc1c(-c2ccccc2)nc2ccc(C)cn12"
74

Supply survival value. Item: "O=C(CSc1nc(-c2ccccc2)no1)N1CCN(c2ccccc2)CC1"
99

Supply survival value. Item: "CCN(C(=O)CSc1nc(-c2ccccc2)no1)c1cccc(C)c1"
-3

Supply survival value. Item: "COc1ccc(CNC(=O)c2cnc(N(C)C)nc2)cc1"
73

***
Supply survival value. Item: "O=C(Nc1c(-c2ccccc2)nc2ccccn12)c1ccc(Br)cc1"
31

Supply survival value. Item: "CCN(C(=O)CSc1nc(-c2ccccc2)no1)c1ccccc1"
79
